// provenance: a melting point compilation (Tetko et al.; mined from patent text by program, amines drawn as free bases though some values may be those of a salt)

Listed molecules paired with reported melting point

Some entries whose results are on file:
{"columns": ["MOLECULE", "melting point"],
 "data": [
  ["CCCCc1c(C(=O)OCC)sc2ccc([N+](=O)[O-])cc12", "92 to 93 °C"],
  ["Cc1ccc(F)c([Si](C)(C)C)c1C#N", "71 to 73 °C"],
  ["Cc1cc(N)cnc1-c1ccccc1", "93 to 98 °C"]
]}

Query string: # query: melting point of entry CC(=O)NC(Cc1c[nH]c2ccccc12)C(=O)CCc1cc(C(F)(F)F)cc(C(F)(F)F)c1 (stereo unspecified)
Result string: 50 to 53 °C

Query string: What do you have for `COc1ccccc1N1CCN([C@H]2CC[C@H](c3ccc(-c4ccccc4)cc3)CC2)CC1` ?
Result string: 220 to 225 °C

Query string: What do you have for `CC(=O)NCc1ccc(CN2CCN(c3ncc([N+](=O)[O-])s3)CC2)cc1` ?
Result string: 151 to 152 °C

Query string: What do you have for NCc1ccc(C(=O)NC2CCN(C3CCCCC3)C2)cc1 (stereo unspecified) ?
Result string: 125 to 129 °C

Query string: What do you have for CCN1C(=O)C(C(=O)Nc2ccc(Cl)cc2)c2cc3c(cc21)CCO3 (stereo unspecified) ?
Result string: 175 to 176 °C

Query string: What do you have for `O=C(CCl)c1ccc(-c2ccc(SC(F)F)cc2)cc1` ?
Result string: 102 to 104 °C

Query string: What do you have for COc1cccc(C(O)c2ccncc2)c1OC (stereo unspecified) ?
Result string: 126 to 128 °C

Query string: What do you have for CNC(=S)NCC1CC(c2ccc(Cl)cc2)=NO1 (stereo unspecified) ?
Result string: 131 to 133 °C
